- procedure-details: Evaluation of light fastness-2 (OD value of printed portion after 400 hours xenon fadeometer)
- Type: physicochemical
- details: ink prepared as in Example 1 from the salt named in the row; OD value of printed portion after 400 hours xenon fadeometer
measured-metric: (A)-2 light fastness-2

Examples with answers:
compound	(A)-2 light fastness-2
CCc1c(N=Nc2cc(C(=O)O)ccc2C(=O)O)c(O)n(CCNC(=O)c2ccc(C(=O)NCCn3c(O)c(N=Nc4cc(C(=O)O)ccc4C(=O)O)c(CC)c(C#N)c3=O)c(C(=O)NCCn3c(O)c(N=Nc4cc(C(=O)O)ccc4C(=O)O)c(CC)c(C#N)c3=O)c2)c(=O)c1C#N [Compound 308]	⊚
Cc1c(N=Nc2cccc(C(=O)O)c2C(=O)O)c(O)n(CCNC(=O)c2cc(C(=O)O)c(C(=O)NCCn3c(O)c(N=Nc4cccc(C(=O)O)c4C(=O)O)c(C)c(C#N)c3=O)cc2C(=O)O)c(=O)c1C#N [Compound 293]	⊚⊚
Cc1c(N=Nc2c(C(=O)O)cccc2C(=O)O)c(O)n(CCNc2nc(NCCn3c(O)c(N=Nc4c(C(=O)O)cccc4C(=O)O)c(C)c(C#N)c3=O)nc(NCCn3c(O)c(N=Nc4c(C(=O)O)cccc4C(=O)O)c(C)c(C#N)c3=O)n2)c(=O)c1C#N [Compound 267]	◯
Cc1c(N=Nc2cc(C(=O)O)ccc2C(=O)O)c(O)n(CCCNc2nc(NCCn3c(O)c(N=Nc4cc(C(=O)O)ccc4C(=O)O)c(C)c(C#N)c3=O)nc(NCCn3c(O)c(N=Nc4c(C(=O)O)cccc4C(=O)O)c(C)c(C#N)c3=O)n2)c(=O)c1C#N [Compound 270]	⊚

## Input Param item = CCCCc1c(N=Nc2cc(C(=O)O)ccc2C(=O)O)c(O)n(CCNc2nc(Cl)nc(NCCn3c(O)c(N=Nc4cc(C(=O)O)ccc4C(=O)O)c(CCCC)c(C#N)c3=O)n2)c(=O)c1C#N [Compound 278] ; retrieve measured (A)-2 light fastness-2.
## Output ◯

## Input Also, CC(C)(C)c1c(N=Nc2cc(C(=O)O)ccc2C(=O)O)c(O)n(CCn2c(=O)c3cc4c(=O)n(CCn5c(O)c(N=Nc6cc(C(=O)O)ccc6C(=O)O)c(C(C)(C)C)c(C#N)c5=O)c(=O)c4cc3c2=O)c(=O)c1C#N [Compound 336] please.
## Output ⊚⊚
